In this section, each of the sequences is paired with its reported calcium oscillation score.
# System Tested: Tau
# Assay Summary: rat primary cortical neurons, FLIPR, 25 uM ASO
Bases are written 5' to 3'; sugars and linkages follow in the same order, as letters with counts (s phosphorothioate, o phosphodiester; PS: all linkages phosphorothioate). The collection does not say whether C is 5-methylated. l = locked nucleic acid (LNA); d = 2'-deoxy (DNA)

Worked cases, calcium oscillation score given:
Qu. Find calcium oscillation score (Tau) for the entry TCCCAGCGTGATCTTCCATC (sugars lldllddddddddddlldll, PS)
Ans. 106 % of control

Qu. Further, for TTTACAAAGTCCACTTT (sugars l4 d9 l4, PS) ?
Ans. 53 % of control

From here, focus on the item given below.
Qu. Find calcium oscillation score (Tau) for the entry AATTTCACCCTCAGTA (sugars l3 d10 l3, PS)
Ans. 73 % of control
